Let's look at some compounds and their measured Test A disease control rating (wheat leaf blotch).
# Test system: Septoria tritici
# Test Details: Test A: wheat leaf blotch, preventive spray on wheat seedlings
# Assay type: in vivo
# Condition Info: 50 ppm, 100 = 100% disease control, 0 = no control relative to controls
I only need the number, in %, no unit after it.

Illustrative cases are given below, each with its answer.
query_smiles=CCc1nn(C)c(Nc2c(F)cccc2[N+](=O)[O-])c1-c1c(F)cc(Cl)cc1F subject_of_test="Septoria tritici" reading_unit=% observed=100
query_smiles=Cc1nn(C)c(Nc2ccc(OCC#N)cc2[N+](=O)[O-])c1-c1ccc(F)cc1Cl subject_of_test="Septoria tritici" reading_unit=% observed=97
query_smiles=COc1ccc(Nc2c(-c3ccc(Cl)cc3Cl)c(C)nn2C)c([N+](=O)[O-])c1 subject_of_test="Septoria tritici" reading_unit=% observed=100
query_smiles=CCc1nn(C)c(Nc2c(Cl)cc(C)cc2[N+](=O)[O-])c1-c1ccc(F)cc1F subject_of_test="Septoria tritici" reading_unit=% observed=100
query_smiles=COc1cc(F)c(-c2c(C)nn(C)c2Nc2ccc(F)cc2[N+](=O)[O-])c(F)c1 subject_of_test="Septoria tritici" reading_unit=% observed=99
query_smiles=COc1ccc(-c2c(C)nn(C)c2Nc2c(F)cccc2[N+](=O)[O-])c(C)c1 subject_of_test="Septoria tritici" reading_unit=% observed=100

Q) Please supply the value of reported Test A disease control rating (wheat leaf blotch) for the item Cc1nn(C)c(Nc2ccc(Cl)cc2[N+](=O)[O-])c1-c1ccc(F)cc1F
A) 100

Q) In one line, give reported Test A disease control rating (wheat leaf blotch) of the entry COc1ccc(-c2c(C)nn(C)c2Nc2c(Cl)cc(C)cc2[N+](=O)[O-])c(Cl)c1 .
A) 100

###

# Tested on: Blumeria graminis f. sp. tritici
# Test Details: Test C: wheat powdery mildew, preventive spray on wheat seedlings
# Format: in vivo
# Condition Info: 50 ppm, rated after 8 days, 100 = 100% disease control, 0 = no control
Measured Test C disease control rating (wheat powdery mildew) by item

query_smiles=CCc1nn(C)c(Nc2ccc(OC)cc2[N+](=O)[O-])c1-c1ccc(F)cc1Cl observed=98%
query_smiles=Cc1nn(C)c(Nc2c(F)cccc2[N+](=O)[O-])c1-c1ccc(Cl)cc1F observed=81%
query_smiles=CCc1nn(C)c(Nc2c(F)cccc2[N+](=O)[O-])c1-c1ccc(F)cc1F observed=99%

Alright, here's another molecule for you.
Q) Report measured Test C disease control rating (wheat powdery mildew); entry is COc1ccc(-c2c(C)nn(C)c2Nc2c(F)cc(Cl)cc2[N+](=O)[O-])c(Cl)c1
A) 89%

###

# Test system: Septoria tritici
# Test Details: Test A: wheat leaf blotch, preventive spray on wheat seedlings
# Assay type: in vivo
# Condition Info: 50 ppm, 100 = 100% disease control, 0 = no control relative to controls
Readout Kind: Test A disease control rating (wheat leaf blotch)

query_smiles=COc1cc(F)c(-c2c(C)nn(C)c2Nc2c(F)cccc2[N+](=O)[O-])c(F)c1 observed=100%
query_smiles=Cc1nn(C)c(Nc2ccc(F)cc2[N+](=O)[O-])c1-c1c(Cl)cccc1Cl observed=100%
query_smiles=Cc1nn(C)c(Nc2c(Cl)cc(Cl)cc2[N+](=O)[O-])c1-c1ccc(F)cc1Br observed=100%
query_smiles=Cc1nn(C)c(Nc2c(Br)cccc2[N+](=O)[O-])c1-c1ccc(F)cc1Cl observed=100%
query_smiles=Cc1nn(C)c(Nc2c(Cl)cc(Br)cc2[N+](=O)[O-])c1-c1ccc(F)cc1Cl observed=99%

Q) Tell me Test A disease control rating (wheat leaf blotch) reported for Cc1cc(Cl)c(Nc2c(-c3c(F)cccc3F)c(C)nn2C)c([N+](=O)[O-])c1
A) 100%

Q) Indicate the recorded Test A disease control rating (wheat leaf blotch) value for this compound: Cc1cc(Cl)c(Nc2c(-c3ccc(C#N)cc3Cl)c(C)nn2C)c([N+](=O)[O-])c1
A) 91%

Q) Could you please provide reported Test A disease control rating (wheat leaf blotch) for Cc1nn(C)c(Nc2c(Cl)cc(F)cc2[N+](=O)[O-])c1-c1c(F)cccc1Cl ? Thanks!
A) 100%

Q) Output Test A disease control rating (wheat leaf blotch) of Cc1nn(C)c(Nc2ccc(OC(F)(F)F)cc2[N+](=O)[O-])c1-c1ccc(F)cc1Cl
A) 73%

Q) // Input: Cc1nn(C)c(Nc2c(F)cccc2[N+](=O)[O-])c1-c1c(F)cccc1Cl . Output its Test A disease control rating (wheat leaf blotch) only.
A) 100%

Q) // Input: Cc1nn(C)c(Nc2ccc(Br)cc2[N+](=O)[O-])c1-c1ccc(F)cc1Br . Output its Test A disease control rating (wheat leaf blotch) only.
A) 100%

Q) Output measured Test A disease control rating (wheat leaf blotch) for this item: CCc1nn(C)c(Nc2c(Cl)cc(Br)cc2[N+](=O)[O-])c1-c1ccc(F)cc1Cl
A) 100%

Q) Given COc1ccc(Nc2c(-c3c(F)cc(F)cc3Br)c(C)nn2C)c([N+](=O)[O-])c1 , respond with its Test A disease control rating (wheat leaf blotch).
A) 100%

Q) Give the reported Test A disease control rating (wheat leaf blotch) for this compound. Cc1nn(C)c(Nc2c(F)cccc2[N+](=O)[O-])c1-c1ccc(Cl)cc1F
A) 100%

Q) For the compound CCc1nn(C)c(Nc2c(Cl)cccc2[N+](=O)[O-])c1-c1ccc(F)cc1F , report Test A disease control rating (wheat leaf blotch).
A) 100%

Q) Retrieve Test A disease control rating (wheat leaf blotch) measured for Cc1nn(C)c(Nc2c(F)cc(Br)cc2[N+](=O)[O-])c1-c1ccc(F)cc1F and print it.
A) 100%
